assay target: Broad substrate specificity ATP-binding cassette transporter ABCG2 (Homo sapiens, UniProt Q9UNQ0)
Sequence (Q9UNQ0 whole entry): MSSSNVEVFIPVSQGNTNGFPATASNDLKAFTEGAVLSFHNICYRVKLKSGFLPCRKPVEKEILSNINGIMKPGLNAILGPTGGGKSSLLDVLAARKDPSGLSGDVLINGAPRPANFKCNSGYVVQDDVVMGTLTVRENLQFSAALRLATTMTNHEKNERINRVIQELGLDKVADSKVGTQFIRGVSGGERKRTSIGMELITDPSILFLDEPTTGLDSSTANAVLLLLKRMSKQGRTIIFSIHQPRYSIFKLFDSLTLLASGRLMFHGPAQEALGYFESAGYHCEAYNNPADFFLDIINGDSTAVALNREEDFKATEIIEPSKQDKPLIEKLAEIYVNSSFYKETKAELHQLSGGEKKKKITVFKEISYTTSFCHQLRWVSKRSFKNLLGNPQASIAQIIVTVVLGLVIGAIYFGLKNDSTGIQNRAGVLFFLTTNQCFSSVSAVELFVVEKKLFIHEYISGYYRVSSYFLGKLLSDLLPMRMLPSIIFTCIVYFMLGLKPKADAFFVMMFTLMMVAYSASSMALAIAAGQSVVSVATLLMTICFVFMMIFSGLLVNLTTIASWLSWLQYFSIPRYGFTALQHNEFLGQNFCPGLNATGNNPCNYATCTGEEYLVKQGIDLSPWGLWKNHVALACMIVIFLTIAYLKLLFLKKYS
run description: Inhibition of ABCG2 (unknown origin) expressed in human NCI-H460 cells mediated pheophorbide A efflux for 2 to 20 hr by fluorescence plate reader analysis
Type: cell-based
observed property: IC50 (µM)
Kindly provide the numeric value in µM only, without the unit symbol.

stdin: Could you tell me which IC50 is on file for `COC(=O)[C@H]1[C@H]2C[C@@H]3c4[nH]c5cc(OC)ccc5c4CCN3C[C@H]2C[C@@H](OC(=O)c2cc(OC)c(OC)c(OC)c2)[C@@H]1OC` ?
stdout: 11.8

These measurements were taken from ChEMBL document CHEMBL5126555.
